# Tested on: LXFL 529
# test-protocol: NCI tumour cell line growth inhibition, 48 h
Activity calls are given as the source filed them. Rule as the data show it: active = GI50 up to about 1.1 µM and inactive = higher.
Respond with a class label; see yes (active), no (inactive)

Take a look at these entries with their results.
# molecule, group-label
data = [
    ("O=C1c2ccccc2C(=O)c2nc(-c3ccccc3)c(-c3ccccc3)nc21", "no"),
    ("O=C(Nc1nc2ccccc2n1Cc1ccccc1)NC12CC3CC(CC(C3)C1)C2", "no"),
    ("O=C1Nc2ccccc2C12CCNC2Cc1ccccc1 (stereo unspecified)", "no"),
    ("CC(=O)Nc1ccc(-c2nnc(SCC(=O)Nc3ccccc3C)o2)cc1", "no"),
    ("Nc1ncnc2c1ncn2C1OC(CSCc2ccc(Cl)cc2)C(O)C1O (stereo unspecified)", "no"),
]

// return assay outcome for `C#CC1(O)c2ccccc2C(=O)c2ccccc21`
no

// return assay outcome for C=C1C(=O)OC2/C=C(/C)C3CC(O)C(C)(CC(OC(=O)/C(C)=C/C)C12)O3 (stereo unspecified)
no

// return assay outcome for `Cn1cc(NC(=O)c2cc(NC(=O)CCCCCC(=O)Nc3cc(C(=O)Nc4cc(C(=O)NCCC(=N)N)n(C)c4)n(C)c3)cn2C)cc1C(=O)NCCC(=N)N`
no

// return assay outcome for COc1ccc2c(c1)CC[C@@H]1C2CC[C@]2(C)C(=O)N(CCN3CCCCC3)C(=O)CC12 (stereo partly specified)
no

// return assay outcome for `CCc1cccc(C)c1NC(=O)C(=O)Cc1nc2ccccc2o1`
no

###

# Test system: Malme-3M
# test-protocol: NCI tumour cell line growth inhibition, 48 h
Calls of active or inactive are those of the source. Cut-off read from the data, not from the text of the source: active = GI50 up to about 1.1 µM and inactive = higher.
Reported GI50 values for a set of molecules

# molecule, recorded-value
measured = [
    ("COc1cc(C=O)c(-c2cc3c(cc2C2(C)OCCS2)OCO3)c(OC)c1OC (centres undefined)", "12 µM (inactive)"),
    ("CCOc1cc2c(cc1OC(C)=O)C(=O)CC[C@H]1C3CC[C@H](OC(C)=O)[C@@]3(C)CC[C@H]21 (some centres undefined)", "> 100 µM (inactive)"),
    ("O=c1c(F)cn2c(=O)n1CCCCCCCn1c(=O)c(F)cn(c1=O)CCCCCCC2", "35.7 µM (inactive)"),
]

Next item in the queue.
Requested field: GI50. Item: `O=S(=O)(c1ccccc1)[C@@H]1[C@H]2C=C[C@](CS)(O2)[C@H]1S(=O)(=O)c1ccccc1`
> 100 µM (inactive)

###

# System: UO-31
# test-protocol: NCI tumour cell line growth inhibition, 48 h
Activity calls are given as the source filed them. No stated cut-off is given here; in the data, active = GI50 up to about 1.1 µM and inactive = higher.
measured-attribute: GI50

See these solved cases before continuing.
# compound, recorded-value
records = [
    ("COC(=O)/C=C1/OC(c2ccc(C)cc2)=C(Cl)C1=O", "17.5 µM (inactive)"),
    ("O=C1c2ccccc2C(=O)N1C/C=N/NS(=O)(=O)c1cccc([N+](=O)[O-])c1", "> 100 µM (inactive)"),
    ("Nc1ncnc2c1ncn2C1CCC(COS(N)(=O)=O)C1 (stereo unspecified)", "> 100 µM (inactive)"),
    ("c1ccc(COc2ccc(C[P+](c3ccccc3)(c3ccccc3)c3ccccc3)cc2)cc1", "2.94 µM (inactive)"),
    ("N#CCCCCCOCCOCCOCCOCCOCCCCCC#N", "> 100 µM (inactive)"),
    ("COc1cc([C@H]2Oc3cc(O)c4c(=O)cc(-c5ccc(O)cc5)oc4c3O[C@@H]2CO)ccc1O", "12.6 µM (inactive)"),
    ("CN(C)c1ccc(/C=C(\\NC(=O)c2ccccc2)C2=NC(CCC(=O)O)C(=O)O2)cc1 (stereo unspecified)", "> 50 µM (inactive)"),
    ("C/C(CC(=O)Nc1cccc(Cl)c1C)=N\\NC(=O)c1ccncc1", "> 100 µM (inactive)"),
    ("COc1ccc2c(=O)c3c([nH]c2c1)OCC3=O", "> 100 µM (inactive)"),
    ("CN(CCCNC(=O)c1cn(C)c2c1ccc1ccccc12)CCCNC(=O)c1cn(C)c2c1ccc1ccccc12", "1.44 µM (inactive)"),
]

Requested field: GI50. Item: `CCCCCCCCCCCC(=O)OC[C@@H](C[As](=O)(O)O)OC(=O)CCCCCCCCCCC`
14.8 µM (inactive)

Requested field: GI50. Item: `CCCCN(Cc1ccccc1)/C(=N/C#N)N(Cc1ccccc1)Cc1ccccc1`
14.6 µM (inactive)

Requested field: GI50. Item: `CC(=O)CC(=O)CCC(=O)Nc1cccc(C(F)(F)F)c1`
> 100 µM (inactive)

Requested field: GI50. Item: OC1/C(=C/c2ccccc2)CNC/C1=C\c1ccccc1 (stereo unspecified)
87.5 µM (inactive)

Requested field: GI50. Item: `CCOC(=O)c1cc(-c2ccc(OC)cc2)c([N+](=O)[O-])[nH]1`
> 10 µM (inactive)

Requested field: GI50. Item: `COc1ccc(/N=C(Nc2ccc(OC)cc2)/C(=N/c2ccc(OC)cc2)Nc2ccc(OC)cc2)cc1`
5.25 µM (inactive)

Requested field: GI50. Item: CC(C)=CCCC1(C)C2COC(=O)C21 (stereo unspecified)
> 100 µM (inactive)

Requested field: GI50. Item: `Cc1ccc(C(=O)N/N=C(\N=N\c2ccc([N+](=O)[O-])cc2)c2ccc(N(CCC#N)CCC#N)cc2C)cc1`
86.7 µM (inactive)

Requested field: GI50. Item: O=NN(CCCl)C(=O)NCCCl [CARMUSTINE]
98.2 µM (inactive)

Requested field: GI50. Item: `C=C(C)[C@@]1(OC(=O)c2cc([N+](=O)[O-])cc([N+](=O)[O-])c2)C[C@@H]2CCCC[C@@H]21`
16.4 µM (inactive)

Requested field: GI50. Item: `CC(=O)CNC(=O)OC(C)(C)C`
> 100 µM (inactive)

###

# Tested on: SK-MEL-2
# test-protocol: NCI tumour cell line growth inhibition, 48 h
Activity calls are given as the source filed them. No stated cut-off is given here; in the data, active = GI50 up to about 1.1 µM and inactive = higher. Where a SMILES comes first, the peptide text is derived from it. The star is where a group is joined. Boc = CC(C)(C)OC(=O)*; OSu = O=C1CCC(=O)N1O*
Respond with a class label; see active, inactive

Take a look at these entries with their results.
# molecule, group-label
data = [
    ("C=CCOC(OCC=C)/C(Br)=C/C", "inactive"),
    ("CCOC(=O)C1(C(=O)OCC)OC(=O)NC2=C1CCCC2", "inactive"),
    ("O=c1[nH]c(C23CC4CC(CC(C4)C2)C3)cc2c1c(=O)oc1ccccc12", "inactive"),
    ("CC(=O)CNC(=O)OC(C)(C)C", "inactive"),
    ("Sc1nn2c(COc3cccc(OCc4nnc5sc(S)nn45)c3)nnc2s1", "inactive"),
    ("O=C1O[C@@H](c2ccccc2)C[C@H]1CN1CCOCC1", "inactive"),
    ("C=C1C(=O)OC2CC3(CO3)C3C(O)C(O)CC3(C)CC12 (configuration not stated)", "inactive"),
    ("BrC1=CN2C[n+]3cc(Br)c4ccccc4c3N=C2c2ccccc21", "inactive"),
    ("CC(=O)OC1=CC2(OC(C)=O)CC(C)(C)C1C1C(=O)C=CC(=O)C12 (configuration not stated)", "inactive"),
    ("CC(NC(=O)C(NC(=O)OC(C)(C)C)C(C)C)C(=O)NCC(=O)ON1C(=O)CCC1=O (stereo not drawn) (Boc-Val-Ala-Gly-OSu; configuration not given here)", "inactive"),
]

// return assay outcome for `N#CCCC(C=O)(CCC#N)CCC#N`
inactive

// return assay outcome for c1ccc2c(c1)nnn2C1CCCCO1 (configuration not stated)
inactive

// return assay outcome for `C=C1c2nc3ccccc3n2C=C(c2ccc(C)cc2)N1c1ccc(OC)cc1`
inactive

// return assay outcome for Cn1cc(-c2ccc(CCOC3CCCCO3)cc2)c2c(C#N)cccc21 (configuration not stated)
inactive

###

# Tested on: UO-31
# test-protocol: NCI tumour cell line growth inhibition, 48 h
Active and inactive are the calls of the source. Cut-off read from the data, not from the text of the source: active = GI50 up to about 1.1 µM and inactive = higher.
measured-attribute: GI50

See these solved cases before continuing.
# molecule, recorded-value
data = [
    ("CNC1=Nc2ccc(Cl)cc2C(OP(=O)(N2CCOCC2)N2CCOCC2)=NC1", "> 100 µM (inactive)"),
    ("CN(C)c1ccc2nc3c(ccc4ccccc43)[o+]c2c1", "17.7 µM (inactive)"),
    ("O=C1C2C(C(=O)N1O)N(Cc1ccccc1)C(=O)N2Cc1ccccc1 (stereo unspecified)", "> 100 µM (inactive)"),
]

Requested field: GI50. Item: `CSc1nc(-c2ccccc2)c2c(n1)-c1ccccc1CC2`
> 100 µM (inactive)

Requested field: GI50. Item: COC(=O)C(NC(=O)c1ccccc1)c1ccco1 (stereo unspecified)
> 100 µM (inactive)

Requested field: GI50. Item: `CCCCOc1ccc(NC(=N)Nc2ccc(Cl)cc2)cc1`
2.43 µM (inactive)

Requested field: GI50. Item: CC(=O)OC1=CC2(OC(C)=O)CC(C)(C)C1C1C(=O)C=CC(=O)C12 (stereo unspecified)
> 70 µM (inactive)

Requested field: GI50. Item: O=c1ccn(C2OC(CN(O)CCC3C(CO)OC(n4ccc(=O)[nH]c4=O)C3O)C(O)C2O)c(=O)[nH]1 (stereo unspecified)
> 100 µM (inactive)

Requested field: GI50. Item: `Cc1[nH]c(C)c(CN(C)C)c1CN(C)C`
> 100 µM (inactive)

Requested field: GI50. Item: CC1CN=C(N(C(=O)Nc2ccc(F)c(Cl)c2)c2ccccc2)S1 (stereo unspecified)
25.8 µM (inactive)

Requested field: GI50. Item: `C[N+]1(C)CCC(C#N)(c2ccccc2)CC1`
> 100 µM (inactive)
